Target or system BRM (Homo sapiens); metric pIC50; compiled from varied reports.
pIC50: −log10 of the molar value.

Field pIC50 (system: BRM (Homo sapiens)) for entry CC(C)S(=O)(=O)n1ccc(C(=O)NCc2nc3ccc(-c4ccc5ccn(C)c(=O)c5c4)cc3[nH]2)c1 = 6.00 to 7.00

Noted pIC50 for Cc1ccc(-c2ccc3cnc(CNC(=O)c4cc(F)c5c(c4)S(=O)(=O)[C@@H](F)CCO5)cc3n2)c(OC(F)F)n1 , tested on BRM (Homo sapiens): 8.39

Record CN(C)S(=O)(=O)c1cccc(C(=O)NCC(=O)Nc2nc(-c3cccc(CN)c3)cs2)c1 / BRM (Homo sapiens), pIC50 recorded as < 5.00

Value (pIC50, BRM (Homo sapiens)) for record CS(=O)(=O)n1ccc(C(=O)NCc2cc3nc(-c4cncc(C5CC5)n4)ccc3cn2)c1 = 7.00 to 8.00
